Provide the recorded IC50 at 24 h for the entries that follow.
- Assay remarks: Cell viability (MTT) of RAW264.7 cells in the presence of LPS
- Format: cell-based, murine
- Condition context: mouse, RAW264.7 macrophage cells, RAW 264.7 cells, 100 ng/mL LPS, mean ± SD of three replicates, read-out: Cytotoxicity IC50

Field IC50 at 24 h (entry Oc1cc(O)c2c(c1)O[C@H](c1ccc(O)c(O)c1)[C@H](O)C2 [Compound 15, epicatechin] ) reads > 517 µM

Record "COc1cc([C@H]2OC[C@H]3[C@@H]2CO[C@@H]3c2cc(OC)c(O)c(OC)c2)cc(OC)c1O" , field IC50 at 24 h: > 239 µM

Record summary for COc1cc(C2OCC3C(=O)OCC32)ccc1O (stereo not shown) : reported IC50 at 24 h = > 400 µM

Reported IC50 at 24 h ( "COc1cc(C[C@H]2COC(=O)[C@@H]2Cc2ccc(O)c(OC)c2)ccc1O" ) = > 279 µM
